- system name: Human immunodeficiency virus type 1 integrase (Human immunodeficiency virus 1)
- experiment description: Inhibition of recombinant HIV1 integrase using unprocessed donor DNA by coupled assay
Reported values of IC50 for individual entries
Quick note: give the figure in µM, leave out the unit.

These solved cases illustrate the format of a correct answer.
C=C(CC[C@@H](C)[C@H]1CC=C2C3=C([C@@H](O)[C@H](OC(C)=O)[C@@]21C)[C@@]1(C)C[C@@H](O)[C@H](OC(=O)CCC(=O)O)C(C)(C)[C@@H]1CC3)C(C)C
3
C=C(CC[C@@H](C)[C@H]1CC=C2C3=C([C@@H](O)[C@H](OC(C)=O)[C@@]21C)[C@@]1(C)C[C@@H](O)[C@H](OS(=O)(=O)O)C(C)(C)[C@@H]1CC3)C(C)C [INTEGRACIDE A]
4
CC(=O)O[C@H]1[C@H](O)C2=C(CC[C@H]3C(C)(C)[C@@H](OS(=O)(=O)O)[C@H](OC(=O)CCCCCCCCCCCCCCCO)C[C@]23C)C2=CC[C@H]([C@H](C)CCC3(C(C)(C)O)CO3)[C@]21C (stereo not given in full)
5
COC(=O)C[C@@](C)(O)CC(=O)O[C@@H]1C[C@]2(C)C3=C(CC[C@H]2C(C)(C)C1=O)[C@]1(C)CC[C@H]([C@H](C)CCC(O)C(C)(C)O)[C@@]1(C)CC3 (stereo not given in full)
70

The record that follows has no IC50 shown yet.
Which IC50 value belongs to C=C(CC[C@@H](C)[C@H]1CC=C2C3=C([C@@H](O)[C@H](OC(C)=O)[C@@]21C)[C@@]1(C)C[C@@H](O)[C@H](O)C(C)(C)[C@@H]1CC3)C(C)C [INTEGRACIDE B] ?
82

----------
- system name: UniProt:Q7ZJM1
- experiment description: Inhibition of recombinant HIV1 integrase using unprocessed donor DNA by coupled assay
measured attribute: IC50 (µM)
Form entry: value (µM) — number only.

Which IC50 is reported with UniProt:Q7ZJM1 for this entry: "C=C(CC[C@@H](C)[C@H]1CC=C2C3=C([C@@H](O)[C@H](OC(C)=O)[C@@]21C)[C@@]1(C)C[C@@H](OC(=O)CCC(=O)NO)[C@H](O)C(C)(C)[C@@H]1CC3)C(C)C" ?
8

Give UniProt:Q7ZJM1 IC50 for "C=C(CC[C@@H](C)[C@H]1CC=C2C3=C(C(=O)[C@H](OC(C)=O)[C@@]21C)[C@@]1(C)C[C@@H](O)[C@H](O)C(C)(C)[C@@H]1CC3)C(C)C"
75

Short answer please: IC50, UniProt:Q7ZJM1, entry "C=C(CC[C@@H](C)[C@H]1C[C@H](OC)c2c3c(cc(C)c21)[C@@]1(C)C[C@@H](O)[C@H](O)C(C)(C)[C@@H]1CC3)C(C)C"
50

What IC50 appears in the records for this compound with UniProt:Q7ZJM1? "C=C(CC[C@@H](C)[C@H]1CC=C2C3=C([C@@H](O)[C@H](OC(C)=O)[C@@]21C)[C@@]1(C)C[C@@H](O)[C@H](OC(=O)CN)C(C)(C)[C@@H]1CC3)C(C)C"
18

Param readout = IC50; param system = UniProt:Q7ZJM1; param query = CC(=O)O[C@H]1[C@H](O)C2=C(CC[C@H]3C(C)(C)[C@@H](OS(=O)(=O)O)[C@H](OC(=O)CCCCCCCCCCCCCCCO)C[C@]23C)[C@@H]2CC[C@H]([C@H](C)CCC3(C(C)(C)O)CO3)[C@]21C (stereo not given in full) ; response: value
5.6

Provide value of IC50 for this record tested with UniProt:Q7ZJM1: "C=C(CC[C@@H](C)[C@H]1CC=C2C3=C([C@@H](O)[C@H](OC(C)=O)[C@@]21C)[C@@]1(C)C[C@@H](OC(=O)CN)[C@H](OC(=O)CN)C(C)(C)[C@@H]1CC3)C(C)C"
1.7

----------
- system name: Human immunodeficiency virus type 1 integrase (Human immunodeficiency virus 1, UniProt Q7ZJM1)
- Sequence (Q7ZJM1 whole entry): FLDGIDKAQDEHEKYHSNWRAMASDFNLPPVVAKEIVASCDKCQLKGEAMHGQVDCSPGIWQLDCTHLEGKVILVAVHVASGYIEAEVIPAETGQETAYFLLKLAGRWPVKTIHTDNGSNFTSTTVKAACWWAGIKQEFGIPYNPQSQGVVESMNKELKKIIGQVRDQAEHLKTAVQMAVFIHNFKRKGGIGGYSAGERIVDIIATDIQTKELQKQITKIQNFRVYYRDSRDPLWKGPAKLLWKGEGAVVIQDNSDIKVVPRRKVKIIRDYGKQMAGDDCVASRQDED
- experiment description: Inhibition of HIV1 integrase assessed as inhibition of 3'-end processing reaction
measured attribute: pIC50
# pIC50 = -log10(concentration in molar units)

CC(=O)O[C@H]1[C@H](O)C2=C(CC[C@H]3C(C)(C)[C@@H](OS(=O)(=O)O)[C@H](OC(=O)CCCCCCCCCCCCCCCO)C[C@]23C)C2=CC[C@H]([C@H](C)CCC3(C(C)(C)O)CO3)[C@]21C (stereo not given in full)
5.00

Bench note: what pIC50 did "C=C(CC[C@@H](C)[C@H]1CC[C@H]2C3=C([C@@H](O)[C@H](OC(C)=O)[C@]12C)[C@@]1(C)C[C@@H](O)[C@H](OS(=O)(=O)O)C(C)(C)[C@@H]1CC3)C(C)C" show?
5.30

Using the record for "C=C(CC[C@@H](C)[C@H]1CC=C2C3=C([C@@H](O)[C@H](OC(C)=O)[C@@]21C)[C@@]1(C)C[C@@H](O)[C@H](OC(=O)CCC(=O)O)C(C)(C)[C@@H]1CC3)C(C)C" , report its pIC50.
5.30

For C=C(CC[C@@H](C)[C@H]1CC=C2C3=C([C@@H](O)[C@H](OC(C)=O)[C@@]21C)[C@@]1(C)C[C@@H](O)[C@H](OS(=O)(=O)O)C(C)(C)[C@@H]1CC3)C(C)C [INTEGRACIDE A] , what is its reported pIC50?
5.30

Entry CC(=O)O[C@H]1[C@H](O)C2=C(CC[C@H]3C(C)(C)[C@@H](OS(=O)(=O)O)[C@H](OC(=O)CCCCCCCCCCCCCCCO)C[C@]23C)[C@@H]2CC[C@H]([C@H](C)CCC3(C(C)(C)O)CO3)[C@]21C (stereo not given in full) has what pIC50?
5.70

----------
- system name: UniProt Q7ZJM1
- experiment description: Inhibition of recombinant HIV1 integrase using preprocessed donor DNA treated after washing excess enzyme by strand transfer assay
Reported values of IC50 for individual entries

Consider the worked cases shown below.
C=C(CC[C@@H](C)[C@H]1CC=C2C3=C([C@@H](O)[C@H](O)[C@@]21C)[C@@]1(C)C[C@@H](O)[C@H](O)C(C)(C)[C@@H]1CC3)C(C)C
> 50 µM
C=C(CC[C@@H](C)[C@H]1CC=C2C3=C([C@@H](O)[C@H](OC(C)=O)[C@@]21C)[C@@]1(C)C[C@@H](OC(=O)CNC(=O)OC(C)(C)C)[C@H](OC(=O)CNC(=O)OC(C)(C)C)C(C)(C)[C@@H]1CC3)C(C)C
> 50 µM
CC(=O)O[C@H]1[C@H](O)C2=C(CC[C@H]3C(C)(C)[C@@H](OS(=O)(=O)O)[C@H](OC(=O)CCCCCCCCCCCCCCCO)C[C@]23C)[C@@H]2CC[C@H]([C@H](C)CCC3(C(C)(C)O)CO3)[C@]21C (stereo not given in full)
5.6 µM
C=C(CC[C@@H](C)[C@H]1CC=C2C3=C([C@@H](O)[C@H](OC(C)=O)[C@@]21C)[C@@]1(C)C[C@@H](OC(=O)CNC(=O)OCC2c4ccccc4-c4ccccc42)[C@H](OC(=O)CNC(=O)OCC2c4ccccc4-c4ccccc42)C(C)(C)[C@@H]1CC3)C(C)C
> 50 µM
C=C(CC[C@@H](C)[C@H]1CC=C2C3=C([C@@H](O)[C@H](OC(C)=O)[C@@]21C)[C@@]1(C)C[C@@H](OC(=O)CNC(=O)OC(C)(C)C)[C@H](O)C(C)(C)[C@@H]1CC3)C(C)C
> 50 µM

Reported IC50, compound "C=C(CC[C@@H](C)[C@H]1CC=C2C3=C([C@@H](O)[C@H](OC(C)=O)[C@@]21C)[C@@]1(C)C[C@@H](O)[C@H](OC(=O)CCC(=O)OC)C(C)(C)[C@@H]1CC3)C(C)C" : ____
> 50 µM

GET /values?readout=IC50&item= "C=C(CC[C@@H](C)[C@H]1CC=C2C3=C([C@@H](O)[C@H](OC(C)=O)[C@@]21C)[C@@]1(C)C[C@@H]2O[C@@H]2C(C)(C)[C@@H]1CC3)C(C)C"
> 50 µM

----------
- system name: Human immunodeficiency virus type 1 integrase (Human immunodeficiency virus 1)
- experiment description: Inhibition of HIV1 integrase-mediated preintegration complex formation by Southern blotting
Reported pIC50 values for the following compounds.
# reply with the number alone; pIC50 is -log10 of concentration in mol/L

C=C(CC[C@@H](C)[C@H]1CC[C@H]2C3=C([C@@H](O)[C@H](OC(C)=O)[C@]12C)[C@@]1(C)C[C@@H](O)[C@H](OS(=O)(=O)O)C(C)(C)[C@@H]1CC3)C(C)C
4.52
CC(=O)O[C@H]1[C@H](O)C2=C(CC[C@H]3C(C)(C)[C@@H](OS(=O)(=O)O)[C@H](OC(=O)CCCCCCCCCCCCCCCO)C[C@]23C)[C@@H]2CC[C@H]([C@H](C)CCC3(C(C)(C)O)CO3)[C@]21C (stereo partly drawn)
4.30

Now for a further compound.
# returns recorded pIC50 (system: Human immunodeficiency virus type 1 integrase (Human immunodeficiency virus 1)) for C=C(CC[C@@H](C)[C@H]1CC=C2C3=C([C@@H](O)[C@H](OC(C)=O)[C@@]21C)[C@@]1(C)C[C@@H](O)[C@H](OS(=O)(=O)O)C(C)(C)[C@@H]1CC3)C(C)C [INTEGRACIDE A]
4.30
